# assay-details: Solubility of the compound in water at pH 7
# Format: physicochemical

molecule: Cc1nc(Nc2ncc(C(=O)Nc3c(C)cccc3Cl)s2)cc(N2CCN(CCO)CC2)n1.O [DASATINIB]
solubility: < 1 µg/mL

====

# assay-details: Half life in nude mouse at 10 mg/kg, […] via oral gavage
# Type: ADME, organism-based
# run-parameters: in vivo

smiles-data: Cc1nc(Nc2ncc(C(=O)Nc3c(C)cccc3Cl)s2)cc(N2CCN(CCO)CC2)n1.O
unit-label: min
half-life: 54

====

# System: MDA-MB-231
# assay-details: cells
# run-parameters: Homo sapiens, MDA-MB-231, 120 h
Recorded EC50, one value per entry.

compound: COc1cc(-c2nn(CCN3CCC(N(C)C)CC3)c3ncnc(N)c23)ccc1CC(=O)N1CCCC1
inequality-symbol: >
EC50 [µM]: 100
//
compound: CN(C)C1CCN(CCn2nc(-c3ccc4c(ccn4C(=O)OC(C)(C)C)c3)c3c(N)ncnc32)CC1
inequality-symbol: =
EC50 [µM]: 4.15
//
compound: COc1cc(-c2nn(CCN3CCC(N(C)C)CC3)c3ncnc(N)c23)ccc1NC(=O)CCc1ccccc1
inequality-symbol: =
EC50 [µM]: 12.2
//
compound: COc1cc(-c2nn(CCN3CCCC(N(C)C)C3)c3ncnc(N)c23)ccc1NC(=O)OC(C)(C)C (centres undefined)
inequality-symbol: =
EC50 [µM]: 1.99

====

# measurement-target: Tyrosine-protein kinase Fyn (Homo sapiens)
# Sequence (P06241 whole entry): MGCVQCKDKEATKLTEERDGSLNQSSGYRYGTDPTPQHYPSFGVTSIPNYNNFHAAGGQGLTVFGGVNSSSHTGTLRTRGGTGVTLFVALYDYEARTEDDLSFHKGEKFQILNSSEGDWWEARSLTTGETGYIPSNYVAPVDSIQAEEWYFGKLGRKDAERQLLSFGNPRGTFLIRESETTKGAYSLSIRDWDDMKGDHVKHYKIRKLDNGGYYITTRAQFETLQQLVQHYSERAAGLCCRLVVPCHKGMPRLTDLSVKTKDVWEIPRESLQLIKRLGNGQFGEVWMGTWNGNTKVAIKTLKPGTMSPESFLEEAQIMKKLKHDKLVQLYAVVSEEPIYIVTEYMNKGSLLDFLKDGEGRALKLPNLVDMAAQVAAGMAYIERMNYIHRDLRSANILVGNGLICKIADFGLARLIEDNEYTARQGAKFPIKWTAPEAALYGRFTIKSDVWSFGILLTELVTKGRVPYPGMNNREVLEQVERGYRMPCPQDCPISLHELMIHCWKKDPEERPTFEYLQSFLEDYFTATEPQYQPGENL

smiles-data: CCOC(Cn1nc(-c2cnc3[nH]ccc3c2)c2c(N)ncnc21)OCC
IC50: 1230 nM

====

# measurement-target: Tyrosine-protein kinase Yes (Homo sapiens, UniProt P07947)
# Sequence (P07947 whole entry): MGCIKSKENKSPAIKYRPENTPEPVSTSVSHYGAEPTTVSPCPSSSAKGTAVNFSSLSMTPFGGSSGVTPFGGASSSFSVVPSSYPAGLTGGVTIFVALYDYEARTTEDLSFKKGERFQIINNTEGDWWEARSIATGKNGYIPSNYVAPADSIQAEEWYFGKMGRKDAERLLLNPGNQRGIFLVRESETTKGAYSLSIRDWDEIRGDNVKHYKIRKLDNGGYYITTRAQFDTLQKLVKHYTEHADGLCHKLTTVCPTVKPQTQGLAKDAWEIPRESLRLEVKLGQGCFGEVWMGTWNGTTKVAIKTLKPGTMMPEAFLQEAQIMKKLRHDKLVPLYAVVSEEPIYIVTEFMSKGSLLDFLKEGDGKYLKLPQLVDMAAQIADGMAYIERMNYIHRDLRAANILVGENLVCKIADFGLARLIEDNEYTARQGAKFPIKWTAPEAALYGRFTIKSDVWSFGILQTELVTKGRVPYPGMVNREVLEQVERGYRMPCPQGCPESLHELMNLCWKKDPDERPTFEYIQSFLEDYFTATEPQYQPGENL
pIC50: −log10 of the molar value.
observable: pIC50

smiles-data: Cc1ccc(-c2nn(C(C)(C)C)c3ncnc(N)c23)cc1
measured-value: 7.44
